Where these numbers come from: patent US8791123B2

Provide the reported pIC50 of each item.
molecular target: Human Jak2 kinase domain (Homo sapiens (Human), UniProt O60674); assay: Jak2 Inhibition Assay (Omnia kinase assay); format: biochemical; settings: read-out: Jak2 Enzyme IC50
Sequence (O60674 808-1132): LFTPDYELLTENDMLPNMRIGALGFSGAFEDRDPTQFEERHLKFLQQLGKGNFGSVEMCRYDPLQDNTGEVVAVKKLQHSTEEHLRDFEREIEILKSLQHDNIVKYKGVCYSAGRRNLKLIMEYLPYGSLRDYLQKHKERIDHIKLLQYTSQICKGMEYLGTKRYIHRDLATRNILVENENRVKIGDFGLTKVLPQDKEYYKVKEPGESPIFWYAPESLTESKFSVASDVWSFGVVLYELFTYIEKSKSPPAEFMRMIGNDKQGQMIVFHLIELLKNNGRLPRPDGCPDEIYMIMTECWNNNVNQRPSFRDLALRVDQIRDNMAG
pIC50: −log10 of the molar value.

Recorded pIC50, per entry:
Smiles Repr | pIC50
COc1ccc(F)cc1[C@H]1CCCN1c1ccn2ncc(C(=O)NCCN3CCOCC3)c2n1 | < 6.00
COc1ccc(F)cc1[C@H]1CCCN1c1ccn2ncc(C(=O)NC[C@H](O)CO)c2n1 | < 6.00
COc1ccc(F)cc1[C@H]1CCCN1c1ccn2ncc(C(=O)NC[C@@H](O)CO)c2n1 | < 6.00
CONC(=O)c1cnn2ccc(N3CCC[C@@H]3c3cc(F)cnc3OC)nc12 | < 6.00
COc1ncc(F)cc1[C@H]1CCCN1c1ccn2ncc(C(=O)NC(C)(C)CF)c2n1 | 6.18

Lab note: next compound to report on.
Task item: Look up and report measured pIC50 for this entry: "C[C@H](NC(=O)c1cnn2ccc(N3[C@@H](c4cncc(F)c4)CC[C@@]3(C)CO)nc12)C(F)(F)F"
Reply: < 6.00

---

Provide the reported pIC50 of each item.
target: Human Jak2 kinase domain (Homo sapiens (Human)); experiment: Jak2 Inhibition Assay (Omnia kinase assay); assay type: biochemical; conditions: read-out: Jak2 Enzyme IC50
Structures can show the parent of a compound that is named as a salt.
Answers are plain numbers, as −log10 of the molar value.

Molecule | Target | Endpoint Name | Measured Value
O=C(N[C@@H]1CCNC[C@@H]1F)c1cnn2ccc(N3CCC[C@@H]3c3cc(F)ccc3F)nc12 [Example 61, hydrochloride] | Human Jak2 kinase domain (Homo sapiens (Human)) | pIC50 | 6.16
COc1ccc(F)cc1[C@H]1CCCN1c1ccn2ncc(C(=O)NC3CC3)c2n1 | Human Jak2 kinase domain (Homo sapiens (Human)) | pIC50 | 6.37
COc1ncc(F)cc1[C@H]1CCCN1c1ccn2ncc(C(=O)NC3CC3)c2n1 | Human Jak2 kinase domain (Homo sapiens (Human)) | pIC50 | 6.16

Lab note: next molecule to report on.
Task item: Look up and report measured pIC50 for this entry: "COc1ncc(F)cc1[C@H]1CCCN1c1ccn2ncc(C(=O)NC(C)(C)C)c2n1"
Reply: 6.06

---

target: Human Jak2 kinase domain (Homo sapiens (Human)); experiment: Jak2 Inhibition Assay (Omnia kinase assay); format: biochemical; conditions: Table 1; 500 μM ATP; >1000 nM when >50% inhibition not observed at 1000 nM; read-out: Jak2 Enzyme IC50
pIC50: −log10 of the molar value.
Endpoint Name: pIC50

Recorded pIC50, per entry:
Compound | pIC50
COc1ncc(F)cc1[C@H]1CCCN1c1ccn2ncc(C(=O)Nc3ccc(=O)[nH]c3)c2n1 | < 6.00
O=C(N[C@H]1CC[C@H](O)C1)c1cnn2ccc(N3CCC[C@@H]3c3cc(F)ccc3F)nc12 | 6.12
O=C(NCC1CC1)c1cnn2ccc(N3CCC[C@@H]3c3cncc(F)c3)nc12 | < 6.00

Lab note: next compound to report on.
Task item: Look up and report measured pIC50 for this entry: COCC(C)NC(=O)c1cnn2ccc(N3CCCC3c3cncc(F)c3)nc12 (stereo not shown)
Reply: < 6.00

---

Target: TrkA (histidine-tagged recombinant human TrkA, cytoplasmic domain) (Homo sapiens (Human), UniProt P04629)
Sequence (P04629 440-796): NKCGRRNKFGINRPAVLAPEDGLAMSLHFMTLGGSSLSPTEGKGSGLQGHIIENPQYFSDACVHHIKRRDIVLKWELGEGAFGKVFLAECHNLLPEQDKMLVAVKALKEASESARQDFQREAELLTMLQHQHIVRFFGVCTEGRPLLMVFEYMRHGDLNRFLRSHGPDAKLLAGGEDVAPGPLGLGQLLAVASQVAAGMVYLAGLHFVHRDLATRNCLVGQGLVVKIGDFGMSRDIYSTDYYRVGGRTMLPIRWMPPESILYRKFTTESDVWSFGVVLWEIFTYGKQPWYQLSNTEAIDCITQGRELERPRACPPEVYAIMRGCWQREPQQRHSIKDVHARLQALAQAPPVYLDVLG
Assay: TrkA ELISA Assay
Format: biochemical
Conditions: Table 1; ELISA, 500 μM ATP; read-out: TrkA Enzyme IC50
Method: An enzyme-linked immunosorbant assay (ELISA) was used to assess TrkA kinase activity in the presence of inhibitors. […] The phosphorylated reaction product was detected using 0.2 μg/mL of a phosphotyrosine specific monoclonal antibody (clone PY20) conjugated to horseradish peroxidase in conjunction with the TMB Peroxidase Substrate System (KPL). After the addition of 1M phosphoric acid, the chromogenic substrate color intensity was quantitated via absorbance at 450 nm.
Provide the reported pIC50 of each item.
Give bare numbers, as −log10 of the molar value.

Recorded pIC50, per entry:
Molecule | pIC50
COc1ncc(F)cc1[C@H]1CCCN1c1ccn2ncc(C(=O)NCCCCO)c2n1 | 8.85
C[C@H](O)[C@H](CO)NC(=O)c1cnn2ccc(N3CCC[C@@H]3c3cc(F)ccc3F)nc12 | 7.91
O=C(NC1CCOCC1)c1cnn2ccc(N3CCC[C@@H]3c3cncc(F)c3)nc12 | 7.35
COCCNC(=O)c1cnn2ccc(N3CCC[C@@H]3c3cc(F)ccc3F)nc12 | 8.60

I would be grateful if you could provide pIC50 for each of the following entries.
1. COc1ncc(F)cc1[C@H]1CCCN1c1ccn2ncc(C(=O)NC[C@@H](O)CO)c2n1
2. CC1(C)OCC(COc2cc(F)cc([C@H]3CCCN3c3ccn4ncc(C(=O)NC5CC5)c4n3)c2)O1 (some centres unmarked)
3. O=C(NC[C@@H](O)CO)c1cnn2ccc(N3CCC[C@@H]3c3cc(F)ccc3F)nc12
4. O=C(NC1CC1)c1cnn2ccc(N3CCC[C@@H]3c3cc(F)ccc3OCC(O)CO)nc12 (some centres unmarked)

Reply:
1: 8.24; 2: 8.41; 3: 8.89; 4: 8.48
